Listed next: entries and their corresponding inhibition.
assay_comment: blockers of RIG-like receptor reporter activation – cell-based, Sendai virus stimulus, luciferase, 10K MLSCN set, TLR/RLR signaling modifier project, primary screen (AID 602276);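 note: firefly luciferase from ISG56 promoter only with Renilla not read in this screen; 0% = Sendai virus plus DMSO and 100% = medium plus DMSO without virus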
experimental_conditions: HEK293 RL24 IRF3 luciferase reporter, at 10 µM, stronger effect = higher value
// return numeric value only (unit: %, not printed)

Sample CC1(C)C2CCC1(CS(=O)(=O)NCc1ccc(C(=O)O)cc1)C(=O)C2 (stereo not given) ; inhibition observed: 36.1

Sample `CC1CCN(S(=O)(=O)c2ccc(S(=O)(=O)NCC(=O)C(C)(C)C)cc2)CC1` ; inhibition observed: 0.588

Sample COc1ccccc1NC(=O)C1=C(C)Nc2ncnn2C1c1ccc(C)o1 (stereo not given) ; inhibition observed: 19.9

Sample Cc1ccc(C2CC(c3cccc(Br)c3)Nc3nnnn32)cc1 (stereo not given) ; inhibition observed: 25.2

Sample `CCN1C(=O)/C(=C/N2CCc3ccccc32)SC1=S` ; inhibition observed: -26.3

Sample `CSc1nnc2c3ccccc3n(CCc3ccccc3)c2n1` ; inhibition observed: -13.2

Sample COc1ccc(C2NC(c3ccc(OC)c(OC)c3OC)C(C)C(=O)C2C)c(OC)c1OC (stereo not given) ; inhibition observed: 14.8

Sample `Cc1ccc(NC(=O)c2oc3ccc(S(=O)(=O)N4CCOCC4)cc3c2C)cc1C` ; inhibition observed: 11

Sample `O=C(Nc1nccs1)c1ccc(Cl)c(S(=O)(=O)N2CCCCC2)c1` ; inhibition observed: 8.7

Sample `Cc1cc(C)c(-c2cc(C(=O)Nc3c(C)n(C)n(-c4ccccc4)c3=O)[nH]n2)c(O)c1` ; inhibition observed: 8.55

* * *

assay_comment: blockers of RIG-like receptor reporter activation – cell-based, Sendai virus stimulus, luciferase, 10K MLSCN set, TLR/RLR signaling modifier project, primary screen (AID 602276);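 note: firefly luciferase from ISG56 promoter only with Renilla not read in this screen; 0% = Sendai virus plus DMSO and 100% = medium plus DMSO without virus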
experimental_conditions: HEK293 RL24 IRF3 luciferase reporter, at 10 µM, stronger effect = higher value
Listed next: entries and their corresponding inhibition.
// return numeric value only (unit: %, not printed)

Solved cases below.
[
  {
    "chemical_structure": "CNC(=O)c1c(O)c2cccc3c2n(c1=O)CC3",
    "observation_type": "inhibition",
    "value_reported": 1.98
  },
  {
    "chemical_structure": "CCCCNC(=O)NS(=O)(=O)c1ccc(C)cc1",
    "observation_type": "inhibition",
    "value_reported": -6.27
  },
  {
    "chemical_structure": "Cn1c(Cc2ccccc2)nnc1SCC(=O)NC1CCCCC1",
    "observation_type": "inhibition",
    "value_reported": 16.3
  },
  {
    "chemical_structure": "CCOC(=O)N1CCC(O)(c2cc(C)c(C)cc2C)CC1",
    "observation_type": "inhibition",
    "value_reported": 16.2
  },
  {
    "chemical_structure": "COc1ccc(N2CCN(c3oc(COc4ccccc4)nc3C#N)CC2)cc1",
    "observation_type": "inhibition",
    "value_reported": 10.1
  }
]

--- query ---
Sample `CCCCCCC(=O)c1c(C)[nH]c(C(=O)OCC)c1C` ; inhibition observed: -13.2

* * *

assay_comment: endothelial E-selectin expression blockers – imaging, HUVEC, immunofluorescence, MLSMR starter and 10KST1 sets, primary screen (AID 487);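 note: signal is fraction of cell area covered by stained E-selectin grains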
experimental_conditions: HUVEC TNFalpha-induced E-selectin immunofluorescence imaging, at 2 µM; stronger effect = higher value
Listed next: entries and their corresponding inhibition.
// return numeric value only (unit: %, not printed)

Solved cases below.
[
  {
    "compound": "NC(=O)C1(N2CCCCC2)CCN(C2CC(=O)N(Cc3cccs3)C2=O)CC1 (stereo unspecified)",
    "observation_type": "inhibition",
    "value_reported": -117
  },
  {
    "compound": "CCN(CC)C(=O)c1ccc(NS(=O)(=O)c2ccccc2)cc1",
    "observation_type": "inhibition",
    "value_reported": -22.4
  },
  {
    "compound": "COc1ccc(N2CCN(C(=O)CN3C(=O)C4CC=CCC4C3=O)CC2)cc1 (stereo unspecified)",
    "observation_type": "inhibition",
    "value_reported": 55.9
  },
  {
    "compound": "CCOC(=O)Cc1nnc(NC(=O)CSc2nnc3c4ccccc4n(C(C)C)c3n2)s1",
    "observation_type": "inhibition",
    "value_reported": -158
  },
  {
    "compound": "Cc1occc1C(=O)Nc1cccnc1",
    "observation_type": "inhibition",
    "value_reported": -9.9
  }
]

Sample CCOc1ccc(C(c2nnnn2Cc2ccccc2)N2CCN(C(=O)c3ccco3)CC2)cc1 (stereo unspecified) ; inhibition observed: 20

Sample CC(Oc1ccc2oc(-c3ccccc3)c(C(=O)O)c2c1)C(=O)O (stereo unspecified) ; inhibition observed: 27.6

Sample `O=C(Cn1cnc2c(nnn2-c2ccc(F)cc2)c1=O)NCc1ccco1` ; inhibition observed: -8.8

Sample COc1cc2nc(N3CCN(C(=O)C4CCCO4)CC3)nc(N)c2cc1OC (stereo unspecified) ; inhibition observed: -29.4

Sample `Cc1ccc(CNC(=O)CSc2n[nH]c(N)n2)cc1` ; inhibition observed: -21.8

Sample `CCc1oc2ccccc2c1C(=O)c1cc(Br)c(O)c(Br)c1` ; inhibition observed: -113

* * *

assay_comment: Primary imaging screen for DUSP6 inhibitors that restore phospho-Erk in transfected HeLa cells, chemical complementation (AID 609)
experimental_conditions: HeLa MKP-3 transfected, phospho-Erk imaging KS statistic; measured here: cell density z-score; at 10 µM; cells stimulated with TPA for 15 min
z-score vs 0.1: at or above is 1, below is 0.

[
  {
    "compound": "O=C(Oc1oc(-c2ccco2)nc1C=Nc1ccccc1)c1ccoc1",
    "group_label": 1
  },
  {
    "compound": "COc1ccc(CN(CCN(C)C)c2ccccn2)cc1",
    "group_label": 0
  },
  {
    "compound": "C=C(Br)CN1CCN(CC(=C)Br)CC1",
    "group_label": 1
  },
  {
    "compound": "CNC(=O)Oc1ccc2c(c1)[C@]1(C)CCN(C)[C@@H]1N2C",
    "group_label": 0
  },
  {
    "compound": "CC1(C)S[C@@H]2[C@H](NC(=O)Cc3ccccc3)C(=O)N2[C@H]1C(=O)O",
    "group_label": 1
  },
  {
    "compound": "Cc1cnc(C(=O)NCCc2ccc(S(=O)(=O)NC(=O)NC3CCCCC3)cc2)cn1",
    "group_label": 0
  }
]

Confirm if z-score reported for the compound `COCCN(Cc1ccccc1)P(=O)(O)c1ccccc1OCC(=O)O` is 0.1 or above.
1

Confirm if z-score reported for the compound `C[C@H]1C[C@H]2[C@@H]3CCC4=CC(=O)C=C[C@]4(C)[C@@]3(Cl)[C@@H](O)C[C@]2(C)[C@@]1(O)C(=O)CO` is 0.1 or above.
1

Confirm if z-score reported for the compound COc1cccc(N2CCN(c3ncnc4c3[nH]c3ccccc34)CC2C)c1 (stereo not given) is 0.1 or above.
0

Confirm if z-score reported for the compound `CN(C)CCCN1c2ccccc2CCc2ccccc21` is 0.1 or above.
0

Confirm if z-score reported for the compound `O=C(CCCN1CCC(O)(c2ccc(Cl)cc2)CC1)c1ccc(F)cc1` is 0.1 or above.
1

Confirm if z-score reported for the compound `COc1cccc(C(=O)NCC(=O)n2nc(C)cc2C)c1` is 0.1 or above.
1

Confirm if z-score reported for the compound `CCC(=O)O[C@]1(C(=O)CCl)[C@@H](C)C[C@H]2[C@@H]3CCC4=CC(=O)C=C[C@]4(C)[C@@]3(F)[C@@H](O)C[C@@]21C` is 0.1 or above.
0

Confirm if z-score reported for the compound `Oc1c(I)cc(Cl)c2cccnc12` is 0.1 or above.
0

Confirm if z-score reported for the compound `NC(=O)c1ccccc1OCCOCCOCCOc1ccccc1C(N)=O` is 0.1 or above.
1

Confirm if z-score reported for the compound `Fc1ccc(C(c2ccc(F)cc2)N2CCN(C/C=C/c3ccccc3)CC2)cc1` is 0.1 or above.
0

Confirm if z-score reported for the compound Cn1c(=O)c2c(ncn2CC(O)CO)n(C)c1=O (stereo not given) is 0.1 or above.
1

Confirm if z-score reported for the compound `CCOC(=O)c1cc(CC)sc1NC(=O)C1CC1` is 0.1 or above.
1

* * *

test_system: Voltage-gated potassium channel subunit beta-2 (Rattus norvegicus) (UniProt P62483)
Sequence (P62483 whole entry, looked up): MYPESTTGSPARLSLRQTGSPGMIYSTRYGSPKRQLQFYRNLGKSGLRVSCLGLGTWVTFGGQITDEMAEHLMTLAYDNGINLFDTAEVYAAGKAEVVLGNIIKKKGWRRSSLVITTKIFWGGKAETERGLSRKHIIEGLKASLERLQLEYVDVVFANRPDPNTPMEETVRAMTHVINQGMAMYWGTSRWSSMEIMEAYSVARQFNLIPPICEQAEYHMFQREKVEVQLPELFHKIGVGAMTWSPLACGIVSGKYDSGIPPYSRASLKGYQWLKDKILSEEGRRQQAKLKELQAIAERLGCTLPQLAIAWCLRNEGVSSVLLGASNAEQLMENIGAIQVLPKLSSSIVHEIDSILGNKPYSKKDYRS
assay_comment: enhancers of rat Kvbeta2 NADPH turnover – biochemical, NADPH fluorescence, primary screen (AID 623);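 note: fluorescence intensity change per second fitted from 20 to 320 s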
experimental_conditions: Recombinant KvBeta, NADPH fluorescence decrease slope, 10 min; at 10 µM; stronger effect = lower value
Listed next: entries and their corresponding NADPH fluorescence slope.
Answer with the value's number alone.

[
  {
    "compound": "CCOC(=O)c1[nH]c(C)c(C(=O)Nc2cc(OC)ccc2OC)c1C",
    "test_system": "Voltage-gated potassium channel subunit beta-2 (Rattus norvegicus) (UniProt P62483)",
    "observation_type": "NADPH fluorescence slope",
    "value_reported": "4.7e-05"
  },
  {
    "compound": "COc1ccccc1-c1coc2c(CN3CCN(CCO)CC3)c(O)ccc2c1=O",
    "test_system": "Voltage-gated potassium channel subunit beta-2 (Rattus norvegicus) (UniProt P62483)",
    "observation_type": "NADPH fluorescence slope",
    "value_reported": "5.8e-06"
  },
  {
    "compound": "CC(C)CCNC(=O)NC(=O)CSc1nnc(-c2ccccc2Br)o1",
    "test_system": "Voltage-gated potassium channel subunit beta-2 (Rattus norvegicus) (UniProt P62483)",
    "observation_type": "NADPH fluorescence slope",
    "value_reported": "2.9e-05"
  },
  {
    "compound": "CC(=O)OC[C@H]1O[C@@H](n2ncc(=O)[nH]c2=O)[C@H](OC(C)=O)[C@@H]1OC(C)=O",
    "test_system": "Voltage-gated potassium channel subunit beta-2 (Rattus norvegicus) (UniProt P62483)",
    "observation_type": "NADPH fluorescence slope",
    "value_reported": "-5.4e-05"
  },
  {
    "compound": "O=C(NC1CCCC1)c1cc(-c2cccs2)on1",
    "test_system": "Voltage-gated potassium channel subunit beta-2 (Rattus norvegicus) (UniProt P62483)",
    "observation_type": "NADPH fluorescence slope",
    "value_reported": "-2.8e-06"
  },
  {
    "compound": "O=C1c2oc3ccccc3c(=O)c2C(c2ccccn2)N1Cc1ccccc1 (stereo unspecified)",
    "test_system": "Voltage-gated potassium channel subunit beta-2 (Rattus norvegicus) (UniProt P62483)",
    "observation_type": "NADPH fluorescence slope",
    "value_reported": "-9.3e-06"
  },
  {
    "compound": "COC(=O)C1=C(C)NC(=O)C1(NC(=O)c1cccnc1)C(F)(F)F (stereo unspecified)",
    "test_system": "Voltage-gated potassium channel subunit beta-2 (Rattus norvegicus) (UniProt P62483)",
    "observation_type": "NADPH fluorescence slope",
    "value_reported": "-2.9e-05"
  },
  {
    "compound": "c1csc(-c2nc3nc4ccccc4nc3n2Cc2ccc3c(c2)OCO3)c1",
    "test_system": "Voltage-gated potassium channel subunit beta-2 (Rattus norvegicus) (UniProt P62483)",
    "observation_type": "NADPH fluorescence slope",
    "value_reported": "-4.1e-05"
  },
  {
    "compound": "C=C(C)CSc1nnc2[nH]c(=O)cc(N)n12",
    "test_system": "Voltage-gated potassium channel subunit beta-2 (Rattus norvegicus) (UniProt P62483)",
    "observation_type": "NADPH fluorescence slope",
    "value_reported": "-6e-05"
  },
  {
    "compound": "O=C(O)c1cc2c([nH]c1=O)CCCC2",
    "test_system": "Voltage-gated potassium channel subunit beta-2 (Rattus norvegicus) (UniProt P62483)",
    "observation_type": "NADPH fluorescence slope",
    "value_reported": "2.3e-05"
  }
]

--- query ---
Sample CC(=O)OC(C(=O)NCc1ccco1)c1cccnc1 (stereo unspecified) ; NADPH fluorescence slope observed: -7.1e-05
